Target Or Test System: AtD14 (Arabidopsis thaliana, UniProt Q9SQR3)
Construct: made in house; host or cells: E. coli
Sequence (Q9SQR3 1-267): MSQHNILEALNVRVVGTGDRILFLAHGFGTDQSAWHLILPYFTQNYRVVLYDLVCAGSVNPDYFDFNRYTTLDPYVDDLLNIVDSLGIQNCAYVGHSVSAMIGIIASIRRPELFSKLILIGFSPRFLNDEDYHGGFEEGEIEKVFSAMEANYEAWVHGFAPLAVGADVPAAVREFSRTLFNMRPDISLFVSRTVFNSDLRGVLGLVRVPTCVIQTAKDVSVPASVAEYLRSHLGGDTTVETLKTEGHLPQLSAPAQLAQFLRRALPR
Assay Explanation: Affinity for strigolactone receptor, YLG probe competition (fluorescence)
Type: binding
Experimental Parameters: AtD14; competition with YLG; test range 0.01 to 10 µM; pH 7.0; read-out: IC50 values of test compounds
Assay Metric: pIC50
Numbers only, as −log10 of the molar value.

pIC50 on AtD14 (Arabidopsis thaliana, UniProt Q9SQR3) for CC1=CC(OC=C2C(=O)OC3C4=C(CCCC4(C)C)CC23)OC1=O (centres unmarked) [5-Ddeoxystriqol, 5-deoxystrigol, reference compound] is 6.36
